Target: T1, CRBN, Q96SW2;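 further: pooled lentiviral library of zinc finger degron-EGFP fusions in mCherry-positive Jurkat cells, FACS-sorted after compound exposure, with degron abundance counted by next-generation sequencing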
T1 chain: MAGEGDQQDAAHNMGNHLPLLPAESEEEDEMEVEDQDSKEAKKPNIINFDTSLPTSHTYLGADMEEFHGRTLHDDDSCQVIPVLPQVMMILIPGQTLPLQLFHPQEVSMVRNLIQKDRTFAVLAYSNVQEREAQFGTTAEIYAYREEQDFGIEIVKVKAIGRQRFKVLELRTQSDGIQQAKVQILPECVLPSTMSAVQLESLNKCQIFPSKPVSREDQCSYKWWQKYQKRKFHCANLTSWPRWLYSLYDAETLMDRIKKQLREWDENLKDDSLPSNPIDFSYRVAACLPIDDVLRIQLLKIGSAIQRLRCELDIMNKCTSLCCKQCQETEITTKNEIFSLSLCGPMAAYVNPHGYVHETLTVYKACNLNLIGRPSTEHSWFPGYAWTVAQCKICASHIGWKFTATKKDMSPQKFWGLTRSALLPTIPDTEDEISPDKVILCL
Experiment: log2 fold change of degron read counts, EGFP-low vs EGFP+ sorted cells (limma voom), compound-induced degradation; higher = more compound-induced degradation of the degron-EGFP fusion; degrons are variants of IKZF1/3 zinc finger 2; compound dose not given here
Conditions: Jurkat; 18 h; compound: thalidomide
Over roughly 8,300 sequences, “log2 fold change of degron read counts, EGFP-low vs EGFP+ sorted cells (limma voom), compound-induced degradation” has its median near -1.1; the highest 2% begin near 3.2. The sample as a whole holds a higher share of the highest values than the screen did.
observable: log2 fold change of degron read counts
Answer field: number only, no words.

According to the records, this sequence FCCEICGAEFTQKGNLLRHIKL [46F_47C_49E_50I_52G_53A_54E_55F_67L_, Q9UKT9] displays log2 fold change of degron read counts of 1.54

Field log2 fold change of degron read counts (entry LRCPICGFGCTQKGNLLRHIKL [46L_47R_49P_50I_52G_53F_54G_55C_67L_, Q9UKT9] ) reads 2.47

Looking up FVCEVCGANFTQKGNLLRHIKL [46F_47V_49E_50V_52G_53A_54N_55F_67L_, Q9UKT9] , I see its log2 fold change of degron read counts listed as 2.74

FICNVCGAIFTQKGNLLRHIKL [46F_47I_49N_50V_52G_53A_54I_55F_67L_, Q9UKT9] has a reported log2 fold change of degron read counts of -1.36

Measured log2 fold change of degron read counts, FICEVCGANFTQKGNLLRHIKL [46F_47I_49E_50V_52G_53A_54N_55F_67L_, Q9UKT9] : 2.44

# log2 fold change of degron read counts of FYCEVCGANFTQKGNLLRHIKL [46F_47Y_49E_50V_52G_53A_54N_55F_67L_, Q9UKT9] = 1.5

For reference, reported log2 fold change of degron read counts for FNCEICGAEFTQKGNLLRHIKL [46F_47N_49E_50I_52G_53A_54E_55F_67L_, Q9UKT9] stands at -0.166

Query FICEICGAKFTQKGNLLRHIKL [46F_47I_49E_50I_52G_53A_54K_55F_67L_, Q9UKT9] yields log2 fold change of degron read counts of 2.61

Field log2 fold change of degron read counts (entry FACEICGAEFTQKGNLLRHIKL [46F_47A_49E_50I_52G_53A_54E_55F_67L_, Q9UKT9] ) reads -0.214

Recorded result, FWCEICGAKFTQKGNLLRHIKL [46F_47W_49E_50I_52G_53A_54K_55F_67L_, Q9UKT9] , log2 fold change of degron read counts: 1.31

According to the records, this sequence FFCEVCGANFTQKGNLLRHIKL [46F_47F_49E_50V_52G_53A_54N_55F_67L_, Q9UKT9] displays log2 fold change of degron read counts of 1.47

Kindly note the recorded log2 fold change of degron read counts for LWCNQCGFPCTQKGNLLRHIKL [46L_47W_49N_50Q_52G_53F_54P_55C_67L_, Q9UKT9] , which is -1.27

Field log2 fold change of degron read counts (entry FTCEVCGANFTQKGNLLRHIKL [46F_47T_49E_50V_52G_53A_54N_55F_67L_, Q9UKT9] ) reads 2.03

Reported log2 fold change of degron read counts for LGCEICGFICTQKGNLLRHIKL [46L_47G_49E_50I_52G_53F_54I_55C_67L_, Q9UKT9] was -0.337

Reported log2 fold change of degron read counts ( FYCEICGAEFTQKGNLLRHIKL [46F_47Y_49E_50I_52G_53A_54E_55F_67L_, Q9UKT9] ) = 0.377
